biological target: MC receptor endogenous to Xenopus laevis melanophores (Xenopus laevis); assay: cell-based or functional assay
Square brackets hold non-standard residues; d marks the D form. * marks the point of attachment. Benzoyl(4-OMe) = COc1ccc(C(=O)*)cc1; d2Thi = N[C@H](Cc1cccs1)C(=O)O; dNal = D-naphthylalanine
Measured MCR Antagonism IC50 nM In Xenopus, listed per entry for reference.

{"BINDER": "{Benzoyl(4-OMe)}-RKAL[d2Thi]I[dL]-NH2 (SMILES CC[C@H](C)[C@H](NC(=O)[C@@H](Cc1cccs1)NC(=O)[C@H](CC(C)C)NC(=O)[C@H](C)NC(=O)[C@H](CCCCN)NC(=O)[C@H](CCCNC(=N)N)NC(=O)c1ccc(OC)cc1)C(=O)N[C@H](CC(C)C)C(N)=O) [S-160]", "UNITS TEXT": "nM", "MCR Antagonism IC50 nM In Xenopus": 197}
{"BINDER": "{Benzoyl(4-OMe)}-RKLL[d2Thi]I[dL]-NH2 (SMILES CC[C@H](C)[C@H](NC(=O)[C@@H](Cc1cccs1)NC(=O)[C@H](CC(C)C)NC(=O)[C@H](CC(C)C)NC(=O)[C@H](CCCCN)NC(=O)[C@H](CCCNC(=N)N)NC(=O)c1ccc(OC)cc1)C(=O)N[C@H](CC(C)C)C(N)=O) [mystixin-7 (S-21)]", "UNITS TEXT": "nM", "MCR Antagonism IC50 nM In Xenopus": 237}
{"BINDER": "{Benzoyl(4-OMe)}-RKLL[dW]I[dL]-NH2 (SMILES CC[C@H](C)[C@H](NC(=O)[C@@H](Cc1c[nH]c2ccccc12)NC(=O)[C@H](CC(C)C)NC(=O)[C@H](CC(C)C)NC(=O)[C@H](CCCCN)NC(=O)[C@H](CCCNC(=N)N)NC(=O)c1ccc(OC)cc1)C(=O)N[C@H](CC(C)C)C(N)=O) [S-117]", "UNITS TEXT": "nM", "MCR Antagonism IC50 nM In Xenopus": 22}
{"BINDER": "{Benzoyl(4-OMe)}-RKLL[d2Thi]A[dL]-NH2 (SMILES COc1ccc(C(=O)N[C@@H](CCCNC(=N)N)C(=O)N[C@@H](CCCCN)C(=O)N[C@@H](CC(C)C)C(=O)N[C@@H](CC(C)C)C(=O)N[C@H](Cc2cccs2)C(=O)N[C@@H](C)C(=O)N[C@H](CC(C)C)C(N)=O)cc1) [S-163]", "UNITS TEXT": "nM", "MCR Antagonism IC50 nM In Xenopus": 234}
{"BINDER": "{Benzoyl(4-OMe)}-AKLL[d2Thi]I[dL]-NH2 (SMILES CC[C@H](C)[C@H](NC(=O)[C@@H](Cc1cccs1)NC(=O)[C@H](CC(C)C)NC(=O)[C@H](CC(C)C)NC(=O)[C@H](CCCCN)NC(=O)[C@H](C)NC(=O)c1ccc(OC)cc1)C(=O)N[C@H](CC(C)C)C(N)=O) [S-167]", "UNITS TEXT": "nM", "MCR Antagonism IC50 nM In Xenopus": 1200}
{"BINDER": "{Benzoyl(4-OMe)}-RALL[d2Thi]I[dL]-NH2 (SMILES CC[C@H](C)[C@H](NC(=O)[C@@H](Cc1cccs1)NC(=O)[C@H](CC(C)C)NC(=O)[C@H](CC(C)C)NC(=O)[C@H](C)NC(=O)[C@H](CCCNC(=N)N)NC(=O)c1ccc(OC)cc1)C(=O)N[C@H](CC(C)C)C(N)=O) [S-166]", "UNITS TEXT": "nM", "MCR Antagonism IC50 nM In Xenopus": 1200}
{"BINDER": "{Benzoyl(4-OMe)}-RKLL[dNal]I[dL]-NH2 [S-114]", "UNITS TEXT": "nM", "MCR Antagonism IC50 nM In Xenopus": 166}
{"BINDER": "{Benzoyl(4-OMe)}-AKLL[d2Thi]I[dL]-NH2 (SMILES CC[C@H](C)[C@H](NC(=O)[C@@H](Cc1cccs1)NC(=O)[C@H](CC(C)C)NC(=O)[C@H](CC(C)C)NC(=O)[C@H](CCCCN)NC(=O)[C@H](C)NC(=O)c1ccc(OC)cc1)C(=O)N[C@H](CC(C)C)C(N)=O) [S-118]", "UNITS TEXT": "nM", "MCR Antagonism IC50 nM In Xenopus": 96}
{"BINDER": "{Benzoyl(4-OMe)}-RKLL[dA]I[dL]-NH2 (SMILES CC[C@H](C)[C@H](NC(=O)[C@@H](C)NC(=O)[C@H](CC(C)C)NC(=O)[C@H](CC(C)C)NC(=O)[C@H](CCCCN)NC(=O)[C@H](CCCNC(=N)N)NC(=O)c1ccc(OC)cc1)C(=O)N[C@H](CC(C)C)C(N)=O) [S-164]", "UNITS TEXT": "nM", "MCR Antagonism IC50 nM In Xenopus": 26}
